TARGET_SYSTEM: T1, human IL-18 binding protein (human, UniProt O95998 31-194)
T1 sequence (looked up): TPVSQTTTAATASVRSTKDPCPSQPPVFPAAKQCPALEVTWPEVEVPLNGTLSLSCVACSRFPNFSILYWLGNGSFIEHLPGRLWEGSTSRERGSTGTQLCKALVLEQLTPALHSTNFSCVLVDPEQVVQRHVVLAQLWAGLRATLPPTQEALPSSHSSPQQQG
PROTOCOL: cell-based or functional assay
Threshold rule: Ratio (-BP/+BP), DF-100,000 greater than or equal to 0.9 is 1 (yes); below that, 0 (no).

Worked set:
yeast display IL-18 variant K53S, S55Y (ligand) YFGKLESKLSVIRNLNDQVLFIDQGNRPLFEDMTDSDMRDNAPRTIFIISMYSDYQPRGMAVTISVKSEKISTLSSENKIISFKEMNPPDNIKDTKSDIIFFQRSVPGHDNKMQFESSSYEGYFLASEKERDLFKLILKKEDELGDRSIMFTVQNED :: 1 (yes)
yeast display IL-18 variant E6D, S36F, K53T, S55M, R58K (ligand) YFGKLDSKLSVIRNLNDQVLFIDQGNRPLFEDMTDFDMRDNAPRTIFIISMYTDMQPKGMAVTISVKSEKISTLSSENKIISFKEMNPPDNIKDTKSDIIFFQRSVPGHDNKMQFESSSYEGYFLASEKERDLFKLILKKEDELGDRSIMFTVQNED :: 1 (yes)
yeast display IL-18 variant K53G, S55I (ligand) YFGKLESKLSVIRNLNDQVLFIDQGNRPLFEDMTDSDMRDNAPRTIFIISMYGDIQPRGMAVTISVKSEKISTLSSENKIISFKEMNPPDNIKDTKSDIIFFQRSVPGHDNKMQFESSSYEGYFLASEKERDLFKLILKKEDELGDRSIMFTVQNED :: 0 (no)

Pending binder:
Is it the case that yeast display IL-18 variant L5W, S7Y, K53H, S55M (ligand) YFGKWEYKLSVIRNLNDQVLFIDQGNRPLFEDMTDSDMRDNAPRTIFIISMYHDMQPRGMAVTISVKSEKISTLSSENKIISFKEMNPPDNIKDTKSDIIFFQRSVPGHDNKMQFESSSYEGYFLASEKERDLFKLILKKEDELGDRSIMFTVQNED has Ratio (-BP/+BP), DF-100,000 reaching or exceeding 0.9?
1 (yes)
